Tested on: JCK
Experiment: qHTS profiling for inhibitors of Plasmodium falciparum proliferation (AID 504749); note: nearly all actives have a fitted effect of over 60% in size
Settings: P. falciparum in erythrocytes, SYBR Green DNA, 72 h; series mostly up to 28.7 µM
Description: NIH National Institute of Allergy and Infectious Diseases [NIAID] NIH Chemical Genomics Center [NCGC] […] Because mature erythrocytes lack DNA, only Plasmodium-derived DNA is detected. NCGC Assay Protocol Summary: The SYBR Green viability assay was adapted from a method described previously (Plouffe et al., 2008). […] The following morning, fluorescence intensity at 485(14) nm excitation and 535(25) nm emission wavelengths was measured on an EnVision (Perkin Elmer) plate reader. […]
Records with an inconclusive call do not appear. The source made the active and inactive calls. Calls come from the whole dose curve; as a rule, active = well fitted inhibition curve with a large enough effect; inconclusive = small, poorly fitted or top-dose-only effect; inactive = flat fitted curve, though single readings scatter.
Classes used: active, inactive

>>> assigned_class("CN1C[C@H](C(=O)N[C@]2(C)O[C@@]3(O)C4CCCN4C(=O)[C@H](Cc4ccccc4)N3C2=O)C[C@@H]2c3cccc4[nH]cc(c34)C[C@H]21 (stereo not given in full)")
"active"
>>> assigned_class("CC(C)(C)[C@]1(O)CCN2CC3c4ccccc4CCc4cccc(c43)[C@@H]2C1 (stereo not given in full)")
"inactive"
>>> assigned_class("CC(C)C[C@H]1C(=O)N2CCCC2[C@]2(O)O[C@](NC(=O)[C@@H]3C=C4c5cccc6[nH]c(Br)c(c56)C[C@H]4N(C)C3)(C(C)C)C(=O)N12 (stereo not given in full)")
"active"
>>> assigned_class("COc1cc2c(cc1OC)C(c1ccccc1)CN(C)CC2 (stereo not given)")
"inactive"
>>> assigned_class("C=C1/C(=C\\C=C2/CCC[C@]3(C)[C@@H]([C@H](C)CCCC(C)(C)O)CC[C@@H]23)C[C@@H](O)C[C@@H]1O")
"inactive"

====

molecular target: Glucocorticoid receptor (Homo sapiens); assay: GR-GFP Redistribution (AID 450); conditions: U2OS GR-GFP nuclear translocation, laser cytometry, 2 h; note: potency is the fitted concentration of half-maximal effect
The source made the active and inactive calls.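 The calls were made as follows: active = compounds whose dose series gives a full or clear partial fitted curve of increased nuclear translocation; inconclusive = weak partial curve or effect only at the top dose; inactive = no dose-dependent translocation response.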
Some compounds, each annotated with its measured Potency.
READOUT: Potency

>>> observed_result("CN(C)Cc1ccccc1-c1cc(NC2CC2)ncn1")
"> 46 µM (inactive)"
>>> observed_result("CNc1cc(-c2ccccc2C(F)(F)F)ncn1")
"> 46 µM (inactive)"
>>> observed_result("CN(C)C(=O)c1ccc(-c2cncnc2NC2CCNCC2)cc1")
"> 46 µM (inactive)"
>>> observed_result("CN1CCN(c2ncncc2-c2ccccc2C(F)(F)F)CC1")
"> 46 µM (inactive)"
>>> observed_result("Cc1cnc(CNc2ncnc3ccc(-c4ccoc4)cc23)cn1")
"> 46 µM (inactive)"
>>> observed_result("O=c1c(-c2cc(F)cc(F)c2)nc2cnc(N3CCNCC3)nc2n1Cc1cccs1")
"> 9.22 µM (inactive)"
>>> observed_result("COc1ccc(Oc2ncc3ncc(=O)n(C)c3n2)cc1")
"> 9.22 µM (inactive)"
>>> observed_result("Cc1noc(C)c1-c1cc(NCc2cccs2)ncn1")
"> 46 µM (inactive)"
>>> observed_result("O=c1c(-c2ccc(Cl)cc2)nc2cnc(N3CCOCC3)nc2n1C[C@H]1CCCO1")
"> 9.22 µM (inactive)"
>>> observed_result("c1ncc(-c2ccoc2)c(NC2CC2)n1")
"> 46 µM (inactive)"
>>> observed_result("COc1ccc(CNc2cc(-c3ccoc3)ncn2)c(OC)c1")
"> 46 µM (inactive)"
>>> observed_result("COc1ncc2nc(CCc3ccccc3)c(=O)n(C3CC3)c2n1")
"> 9.22 µM (inactive)"

====

molecular target: Dual specificity protein kinase CLK4 (Homo sapiens) (UniProt Q9HAZ1); test: qHTS Assay for Inhibitors of CDC-like Kinase 4 (ADP-FP Assay) (AID 1795); conditions: Transcreener ADP fluorescence polarization; series mostly up to 50 µM; note: nearly all actives have a fitted effect of over 60% in size
Sequence (Q9HAZ1 whole entry, looked up): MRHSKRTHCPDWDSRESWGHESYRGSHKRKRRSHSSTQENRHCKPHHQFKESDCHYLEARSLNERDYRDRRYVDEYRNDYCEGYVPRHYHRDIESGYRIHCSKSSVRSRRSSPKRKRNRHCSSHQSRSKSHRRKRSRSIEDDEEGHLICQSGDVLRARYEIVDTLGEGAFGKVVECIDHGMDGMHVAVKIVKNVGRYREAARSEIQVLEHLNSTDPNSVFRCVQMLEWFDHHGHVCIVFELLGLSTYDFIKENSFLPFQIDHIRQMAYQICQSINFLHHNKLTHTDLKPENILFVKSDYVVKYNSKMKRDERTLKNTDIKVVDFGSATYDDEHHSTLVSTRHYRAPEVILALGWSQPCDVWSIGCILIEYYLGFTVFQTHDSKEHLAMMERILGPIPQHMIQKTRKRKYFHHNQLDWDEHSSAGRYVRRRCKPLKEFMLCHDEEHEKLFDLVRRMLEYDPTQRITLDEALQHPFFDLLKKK
Results filed as inconclusive are left out. The source made the active and inactive calls. Calls follow the shape of the dose curve; as a rule, active = well fitted inhibition curve with a large enough effect; inconclusive = small, poorly fitted or top-dose-only effect; inactive = flat fitted curve, though single readings scatter.
Outcome codes: active, inactive

>>> assigned_class("CN(Cc1ccco1)c1ncnc2ccc(-c3ccccc3Cl)cc12")
"active"
>>> assigned_class("c1cncc(CNc2ncncc2-c2cccnc2)c1")
"inactive"
>>> assigned_class("COCCn1c(=O)c(-c2cccc(C#N)c2)nc2cnc(OC)nc21")
"inactive"
>>> assigned_class("CN1CCN(c2ncc3ncc(=O)n(CCC#N)c3n2)CC1")
"inactive"
>>> assigned_class("COc1cccc(Cn2c(=O)c(-c3cccs3)nc3cnc(N(C)C)nc32)c1")
"inactive"
>>> assigned_class("Cc1nc2cnc(N3CCOCC3)nc2n(C[C@H]2CCCO2)c1=O")
"inactive"
>>> assigned_class("COc1ccc(Oc2ncc3nc(C)c(=O)n(Cc4cccc(OC)c4)c3n2)cc1")
"inactive"
>>> assigned_class("COc1ccc(-c2nc3cnc(N4CCN(C)CC4)nc3n(Cc3ccc(F)cc3)c2=O)cc1")
"inactive"
>>> assigned_class("CN(C)c1ncc2nc(-c3ccc(F)cc3)c(=O)n(C)c2n1")
"inactive"
>>> assigned_class("Cc1noc(C)c1-c1cc(NC2CCNCC2)ncn1")
"inactive"
>>> assigned_class("COc1ccc(-n2c(=O)c(-c3ccc(F)cc3)nc3cnc(N4CCOCC4)nc32)cc1")
"inactive"

====

test: qHTS for differential inhibitors of proliferation of Plasmodium falciparum line GB4 (AID 1816); details: Plasmodium falciparum GB4 proliferation inhibition; series mostly up to 28.7 µM;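 note: parasite growth measured after 72 h incubation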
Inconclusive results are not listed. The source made the active and inactive calls. The call rests on the fitted dose curve; in most records, active means well fitted curve in the direction sought with a large enough effect; inconclusive means small, poorly fitted or top-dose-only effect, or another doubt; inactive means no such curve, though single readings can be large or run the other way.
Possible outcomes: 1 (active), 0 (inactive)

>>> assigned_class("CC(=O)O[C@H]1C[C@@H]2CCC3C(CC[C@@]4(C)[C@H]3C[C@H]([N+]3(C)CCCCC3)[C@@H]4OC(C)=O)[C@@]2(C)C[C@@H]1[N+]1(C)CCCCC1 (stereo partly drawn)")
0
>>> assigned_class("Nc1ncnc2c1nc(Sc1ccc(Cl)cc1)n2[C@H]1O[C@@H]2COP(=O)(O)O[C@H]2[C@@H]1O")
1
>>> assigned_class("CC(C)C1NC(=O)[C@H](CCCCN)NC(=O)[C@@H](Cc2c[nH]c3ccccc23)NC(=O)[C@H](Cc2ccc(O)cc2)NC(=O)[C@H](C)N(C)C(=O)[C@H](Cc2ccccc2)NC1=O (stereo partly drawn)")
0
>>> assigned_class("NCCC(=O)NCCc1cnc[nH]1")
0
>>> assigned_class("CNc1ncnc2c1ncn2[C@@H]1O[C@H](CO)[C@H](O)[C@H]1O")
0
>>> assigned_class("CCn1c(=O)c2[nH]c(-c3ccccc3)nc2n(CC)c1=O")
0
>>> assigned_class("NC(=NCCC[C@H](N)C(=O)O)NO")
0
>>> assigned_class("COC(=O)c1c(-c2cc(OC)c(OC)c(OC)c2)c2ccc(OCc3ccccn3)cc2c(=O)n1-c1ccc(N)cc1")
1
>>> assigned_class("CN1CCc2cc(Cl)c(O)cc2C(c2ccccc2)C1 (stereo not drawn)")
1
>>> assigned_class("Nc1ncnc2c1ncn2[C@@H]1O[C@H](CO)[C@H](O)[C@H]1O")
0
>>> assigned_class("CN=C(N)NCCCC(N)C(=O)O (stereo not drawn)")
0
>>> assigned_class("O=[N+]([O-])c1ccc(CSc2ncnc3c2ncn3[C@@H]2O[C@H](CO)[C@H](O)[C@H]2O)cc1")
0
>>> assigned_class("N[C@H](Cc1ccc(O)c(O)c1)C(=O)O")
0
>>> assigned_class("NC(=S)c1ccc[n+]([C@@H]2O[C@@H](COP(=O)([O-])OP(=O)(O)OC[C@H]3O[C@@H](n4cnc5c(N)ncnc54)[C@H](OP(=O)(O)O)[C@H]3O)C(O)C2O)c1 (stereo partly drawn)")
0
>>> assigned_class("NCC1OC(O[C@@H]2[C@H](O)[C@@H](OC3C(O)C(N)CC(N)C3OC3OC(CO)C(O)C(O)C3N)O[C@@H]2CO)C(N)C(O)C1O (stereo partly drawn)")
0
>>> assigned_class("CCCCCCCCCCCCCCC/C=C/[C@@H](O)[C@H](NC(=O)CCCCCCCCCCCCC)OC (tested in a mixture with another compound)")
0
>>> assigned_class("NC(=O)C1=CN(C2OC(COP(=O)(O)OP(=O)(O)OC[C@H]3O[C@@H](n4cnc5c(N)ncnc54)[C@H](OP(=O)(O)O)[C@H]3O)C(O)C2O)C=CC1 (stereo partly drawn)")
0
>>> assigned_class("OC[C@H]1O[C@@H](n2cnc3c(Nc4ccccc4)ncnc32)[C@H](O)[C@H]1O")
0

====

experiment: qHTS Assay for Lipid Storage Modulators (AID 1519); details: Drosophila S3 cells, BODIPY lipid droplet/cell ratio, laser cytometry; measured here: cell count channel max response; cells loaded with oleic acid
Results filed as inconclusive are left out.
READOUT: max response (%)

>>> observed_result("O=c1c(CCc2ccccc2)nc2cnc(N3CCNCC3)nc2n1C1CC1")
16.7
>>> observed_result("O=C(c1ccncc1)N1CCC2(CC1)CN(C(c1ccccc1)c1ccccc1)C2")
-4.87
>>> observed_result("COC(=O)N1CCC[C@@]2(CCN(C(c3ccccc3)c3ccccc3)C2)C1")
6.34
>>> observed_result("O=c1c(-c2cc(F)cc(F)c2)nc2cnc(N3CCOCC3)nc2n1C[C@H]1CCCO1")
8.91
>>> observed_result("COc1ccc(NC(=O)N2CC3(CCN(S(C)(=O)=O)CC3)C2)cc1")
-10.6
>>> observed_result("O=C(c1cnccn1)N1CCC[C@@]2(CCN(c3ncccn3)C2)C1")
9.64
>>> observed_result("Fc1ccc(Nc2ccnc(-c3ccoc3)n2)cc1")
9.29
>>> observed_result("COc1ccc(-n2c(=O)c(-c3cc(F)cc(F)c3)nc3cnc(N(C)C)nc32)cc1")
11.6
>>> observed_result("COc1ncc2nc(-c3cc(F)cc(F)c3)c(=O)n(-c3ccccc3)c2n1")
11.4
>>> observed_result("O=c1c(-c2ccccc2)nc2cnc(Oc3ccccc3)nc2n1Cc1cccs1")
21.8
>>> observed_result("c1ccc(-c2ccc(N3CC4(CCNCC4)C3)cc2)cc1")
-25
>>> observed_result("Cn1c(=O)c(CCc2ccccc2)nc2cnc(OCc3ccccc3)nc21")
13.9
>>> observed_result("Cc1noc(C)c1C(=O)N1CCC2(CCCN(C(=O)Nc3cccc(F)c3)C2)CC1")
9.33
>>> observed_result("CC(C)NC(=O)N1CCCC2(CCN(C(=O)c3ccncc3)CC2)C1")
13.8
>>> observed_result("O=C(c1csnn1)N1CCC2(CC1)CN(c1ccccn1)C2")
15.6
>>> observed_result("COC(=O)N1CCC2(CCN(C(=O)Nc3ccccc3)CC2)CC1")
8.07
>>> observed_result("CN(C)C(=O)c1ccc(-c2cc(NCc3cccnc3)ncn2)cc1")
24.7
>>> observed_result("COCCNc1ncnc2ccc(-c3cccc(NS(C)(=O)=O)c3)cc12")
-7.37
>>> observed_result("CCNc1ncc2nc(-c3cn(C)c4ccccc34)c(=O)n(Cc3cccc(OC)c3)c2n1")
15.6
>>> observed_result("CCNc1ncc2nc(C)c(=O)n(CCC#N)c2n1")
-0.74
>>> observed_result("Cn1cc(-c2nc3cnc(N4CCNCC4)nc3n(CCC#N)c2=O)c2ccccc21")
-3.78
>>> observed_result("CN(C)c1ncc2nc(-c3ccc(F)cc3)c(=O)n(C)c2n1")
18.3
>>> observed_result("O=C(Nc1cccc(F)c1)N1CCCC2(CCN(C(=O)c3ccncc3)CC2)C1")
19.3
>>> observed_result("CNc1ncnc2ccc(-c3ccccc3CN(C)C)cc12")
6.85
>>> observed_result("COCC(=O)N1CCC[C@@]2(CCN(Cc3ccc(C#N)cc3)C2)C1")
7.03
>>> observed_result("COc1ccccc1CN1CCC2(CC1)CCN(C(C)=O)CC2")
3.13
>>> observed_result("NCCn1c(=O)c(CCc2ccccc2)nc2cncnc21")
26.7
>>> observed_result("COc1ccc(Oc2ncc3nc(C)c(=O)n(-c4ccccc4)c3n2)cc1")
10.7
>>> observed_result("O=C(Nc1cccc(F)c1)N1CCC2(CC1)CCN(S(=O)(=O)c1ccccc1)CC2")
0.271
>>> observed_result("Cc1noc(C)c1-c1cc(N2CCNCC2)ncn1")
1.52
>>> observed_result("O=C(c1ccco1)N1CCC2(CC1)CN(c1ccc(-c3ccccc3)cc1)C2")
-15.3
>>> observed_result("COCCn1c(=O)c(CCc2ccccc2)nc2cnc(N3CCN(C)CC3)nc21")
-2.68
>>> observed_result("CC(C)NC(=O)N1CC[C@@]2(CCCN(S(C)(=O)=O)C2)C1")
4.25
>>> observed_result("CNc1ccnc(-c2ccccc2OC)n1")
21.3
>>> observed_result("COCC(=O)N1CCC[C@@]2(CCN(c3ncccn3)C2)C1")
19.1
>>> observed_result("CN(C)c1ccc(-c2cncnc2NCc2cccs2)cc1")
4.82
>>> observed_result("COc1cccc(Nc2ncc3nc(-c4ccc(Cl)cc4)c(=O)n(C4CC4)c3n2)c1")
-0.959
>>> observed_result("FC(F)(F)c1cc(CN2CC3(CCNCC3)C2)cc(C(F)(F)F)c1")
-18
>>> observed_result("COc1ccc(-n2c(=O)cnc3cnc(N(C)C)nc32)cc1")
17.5
>>> observed_result("Cn1c(=O)cnc2cnc(Oc3ccccc3)nc21")
18.8
>>> observed_result("Clc1ccccc1-c1cncnc1NCc1cccs1")
21
>>> observed_result("CN1CCN(c2cc(-c3ccc(N(C)C)cc3)ncn2)CC1")
7.68
>>> observed_result("COc1ccc(Oc2ncc3nc(C)c(=O)n(C[C@H]4CCCO4)c3n2)cc1")
-3.75
>>> observed_result("COc1ccc(-n2c(=O)cnc3cnc(N4CCOCC4)nc32)cc1")
0.0679
>>> observed_result("Cc1ccccc1N1CCN(S(=O)(=O)C[C@]23CCC(CC2NC(=O)[C@@H](N)CCS(C)(=O)=O)C3(C)C)CC1 (stereo not given in full)")
-14.5
